Data origin: ChEMBL document CHEMBL3507680

Measured cytotoxicity at 70.5 h, listed per entry.
protocol details: Human HepG2 cell viability assay in 384 well format
Format: toxicity, cell-based
Parameters: dose 125 nL, time 70.5 hour; concentration not given beside the values
details: HepG2 cells, read-out: Inhibition
// units = %; emit number, no label

Below: 2 compounds and their reported cytotoxicity at 70.5 h.
compound=Cc1cc(F)ccc1C(=O)N1C[C@@H]2COC[C@]2(COCC2CC2)C1 result_units=% assay_result=-10.8
compound="Cc1ccc(CC(=O)NCC(O)c2cccc(C(F)(F)F)c2)cn1 (stereo unspecified)" result_units=% assay_result=-0.0497

The reported value for CCO[C@@H]1CC[C@H]2[C@H]1OCCN2C(=O)CC1=CCCCC1 in terms of cytotoxicity at 70.5 h is -2.71

The reported value for CCc1cc(N(C)CCC(O)c2ccccc2)n2nccc2n1 (stereo unspecified) in terms of cytotoxicity at 70.5 h is 30.6

The reported value for O=C(NCCNS(=O)(=O)c1ccc(C(F)(F)F)cc1)c1ccoc1 in terms of cytotoxicity at 70.5 h is -6.84

The reported value for CC(=O)NCC(=O)N1Cc2cc(-c3cc[nH]n3)ccc2C1c1cnco1 (stereo unspecified) in terms of cytotoxicity at 70.5 h is -2.28

The reported value for Cn1nc(C(=O)N2CCCC2)c(F)c1NC(=O)Cc1ccccc1 in terms of cytotoxicity at 70.5 h is 28.2

The reported value for CC(C)n1c(=O)nc2n1C(=O)N(c1ccc(F)cc1)C2 in terms of cytotoxicity at 70.5 h is -10.1

The reported value for O=C(CCN1CCCCO1)N1CC[C@H](O)[C@@H](O)C1 in terms of cytotoxicity at 70.5 h is 11.6

The reported value for CCC1CCCCCN1C(=O)c1coc(S(=O)(=O)N(C)C)c1 (stereo unspecified) in terms of cytotoxicity at 70.5 h is -12.3

The reported value for COCCN1C(=O)CC(c2cccnc2)C12CCN(C(=O)C1CC1)CC2 (stereo unspecified) in terms of cytotoxicity at 70.5 h is -0.348

###

protocol details: Human HepG2 cell viability assay in 384 well format
Assay type: toxicity, cell-based
Set-up: dose 125 nL, time 70.5 hour; concentration not given beside the values
details: HepG2 cells, read-out: Inhibition
Measured cytotoxicity at 70.5 h, listed per entry.
// units = %; emit number, no label

The reported value for CCCN(C(=O)CS(=O)(=O)c1ccccc1)c1cccc(C)c1 in terms of cytotoxicity at 70.5 h is -5.44

The reported value for CCN(Cc1nc2c(cnn2C)c(=O)[nH]1)c1ccccc1 in terms of cytotoxicity at 70.5 h is 3.68

The reported value for COCC(=O)N1CCCCC1c1nc(C)c2c(n1)N(C1CC1)C(=O)CC2 (stereo unspecified) in terms of cytotoxicity at 70.5 h is -3.68

The reported value for CN(C)C(=O)c1ccccc1NC(=O)N(C)Cc1ccccc1O in terms of cytotoxicity at 70.5 h is 4.11

The reported value for Cc1cccc(-n2ncc3c(=O)n(CCN4CCCCC4)cnc32)c1C in terms of cytotoxicity at 70.5 h is 28

The reported value for CC1CCN(C(=O)c2ccn(COc3ccccc3)n2)CC1 in terms of cytotoxicity at 70.5 h is -4.91

The reported value for CCn1ccc(NC(=O)CCc2c(C)nn(C)c2C)n1 in terms of cytotoxicity at 70.5 h is 18.2

The reported value for Cc1cccc(N2CCC(N3CCCC4(CNC(=O)O4)C3)CC2)c1C (stereo unspecified) in terms of cytotoxicity at 70.5 h is -7.33

The reported value for CN(C)[C@@H]1CCN(CC2CC2)[C@H]1Cc1cnn(C)c1 in terms of cytotoxicity at 70.5 h is 0.964

The reported value for Cc1ccc(F)c(NS(=O)(=O)c2cc3c(c(C(=O)O)c2)OCCO3)c1 in terms of cytotoxicity at 70.5 h is 2.59

The reported value for Fc1cccc2[nH]c(CN3CCn4c(nnc4C4CC4)C3)nc12 in terms of cytotoxicity at 70.5 h is 1.58

The reported value for O=C1Nc2ccccc2C12CCCN(Cc1ccc3c(c1)OCCO3)C2 (stereo unspecified) in terms of cytotoxicity at 70.5 h is -11.8

The reported value for Cc1nnc(NC(=O)c2cc(S(=O)(=O)N3CCSCC3)c[nH]2)s1 in terms of cytotoxicity at 70.5 h is -0.0324

The reported value for CO[C@@H]1CCN(S(=O)(=O)N(C)C)[C@@H]2CN(Cc3cccnc3)C[C@@H]21 in terms of cytotoxicity at 70.5 h is -4.13

The reported value for CC(=O)N1CCC(c2nc3ccc(C)cn3n2)CC1 in terms of cytotoxicity at 70.5 h is -0.807

The reported value for CCc1nccn1-c1cncc(C2CCCN2Cc2ccc(F)cc2)n1 (stereo unspecified) in terms of cytotoxicity at 70.5 h is 36.1

###

Measured cytotoxicity at 70.5 h, listed per entry.
protocol details: Human HepG2 cell viability assay in 384 well format
Type: toxicity, cell-based
Parameters: dose 125 nL, time 70.5 hour; concentration not given beside the values
details: HepG2 cells, read-out: Inhibition
// units = %; emit number, no label

Below: 2 molecules and their reported cytotoxicity at 70.5 h.
molecule=Cc1cc(N2CCN(Cc3ccc(-c4cc[nH]n4)o3)CC2)cc(C)n1 quantity_measured="cytotoxicity at 70.5 h" result_units=% assay_result=19.1
molecule=CC(C)N1CCN(C(=O)Nc2cnn(CC(N)=O)c2)CC1 quantity_measured="cytotoxicity at 70.5 h" result_units=% assay_result=18.2

The reported value for CCn1ccnc1CN1CCCN(CC2CC2)C(C(C)C)C1 (stereo not drawn) in terms of cytotoxicity at 70.5 h is -5.83

The reported value for Cc1ccc(C(=O)N2CCCC(N(C)C(=O)OC(C)(C)C)C2)o1 (stereo not drawn) in terms of cytotoxicity at 70.5 h is 2.04

The reported value for O=C(Nc1cccc(F)c1)NC1CCN(Cc2ccncc2)CC1 in terms of cytotoxicity at 70.5 h is -15.3

The reported value for Cc1ncsc1C(=O)NC1CCN(Cc2cccnc2)CC1 in terms of cytotoxicity at 70.5 h is 0.341

The reported value for CC(C)(C)C(=O)N1C[C@@H](F)[C@@H](OCc2nc3ccccc3o2)C1 in terms of cytotoxicity at 70.5 h is -3.29

The reported value for CCN(Cc1noc(C2CCC2)n1)C(=O)c1cnc2ccccc2c1 in terms of cytotoxicity at 70.5 h is 13.1

The reported value for COc1ncccc1CNCc1c(C(C)C)nn(C)c1N(C)C in terms of cytotoxicity at 70.5 h is -1.75

The reported value for COc1cccc(Nc2nc(C3CCCNC3)c3ccccn23)c1 (stereo not drawn) in terms of cytotoxicity at 70.5 h is -7.29

The reported value for CC(C)C(C)N(C)Cc1nnc(-c2ccc(Br)s2)o1 (stereo not drawn) in terms of cytotoxicity at 70.5 h is -3

The reported value for CCc1cnc(N2CC[C@H]3[C@H]2CC(=O)N3c2cccnc2)nc1 in terms of cytotoxicity at 70.5 h is -10

The reported value for CNC(=O)[C@@H](c1ccccc1F)N1CCC[C@H]1C(=O)NC1CCOCC1 in terms of cytotoxicity at 70.5 h is -12.5

The reported value for c1nc(N2CCOCC2)ncc1-c1cncn1CCCN1CCCCC1 in terms of cytotoxicity at 70.5 h is -13.7

The reported value for CC(C)Oc1cc(N2CC[C@@H](N3CCOCC3)[C@H](O)C2)nc(N)n1 in terms of cytotoxicity at 70.5 h is -6.54

The reported value for Cc1cc(C2CCCCCN2Cc2cn(C)nc2C)no1 (stereo not drawn) in terms of cytotoxicity at 70.5 h is -6.86

The reported value for CC(=O)N1CCCCC1c1ncnn1-c1ccc2nc(C)sc2c1 (stereo not drawn) in terms of cytotoxicity at 70.5 h is -4.05

The reported value for CN(C)C(C(=O)N1CCN(CCn2cccc2)CC1)c1cccc(F)c1 (stereo not drawn) in terms of cytotoxicity at 70.5 h is 2.13

The reported value for Cc1cc(C)n(CC2CN(c3ncnc4[nH]ccc34)CCO2)n1 (stereo not drawn) in terms of cytotoxicity at 70.5 h is 1.04

The reported value for Cc1nc(-c2ccnc(N3CCNCC3)n2)no1 in terms of cytotoxicity at 70.5 h is -1.44

The reported value for Cc1ccc2cc(CNCCCN3CCOCC3)c(=O)[nH]c2c1C in terms of cytotoxicity at 70.5 h is -8.68

The reported value for O=C1CCNc2ccc(F)cc2CN1Cc1ccccc1 in terms of cytotoxicity at 70.5 h is 2.31

The reported value for CCN1CC(CN(C)Cc2nc(-c3cccc(C)c3)oc2C)CC1=O (stereo not drawn) in terms of cytotoxicity at 70.5 h is 28.2
